# system under test: purified PhnO protein (Escherichia coli, UniProt P16691, P2A)
# Construct: made in house; host or cells: E. coli JM101 carrying pMON15032 (recA promoter, nalidixic acid induction)
# Sequence (P16691 whole entry P2A): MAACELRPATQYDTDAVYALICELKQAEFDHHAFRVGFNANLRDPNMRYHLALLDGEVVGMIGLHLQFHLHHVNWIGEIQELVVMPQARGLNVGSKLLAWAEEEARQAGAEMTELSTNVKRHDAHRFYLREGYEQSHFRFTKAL
# method summary: AMPA transacylase acyl-CoA acyl donor specificity, HPLC
# Format: biochemical, E. coli
# cond: acyl donor 0.1 mM; 1 mM acetyl-CoA = 100% reference
# Method: PhnO was purified from a one liter Luria Bertani broth culture of E. coli JM101 expressing a recombinant phnO gene from pMON15032 after nalidixic acid induction for three hours at 37° C. […] Forty 9 ml fractions were collected from the column eluate, and thirty microliters of each fraction was analyzed by western blot using anti-PhnO antiserum after resolution on a 15% SDS-PAGE gel. […]
reported metric: % Activity (%)
Just the number in %, nothing appended.

Return reported % Activity. Input compound: CCC(=O)SCCNC(=O)CCNC(=O)[C@H](O)C(C)(C)COP(=O)(O)OP(=O)(O)OC[C@H]1O[C@@H](n2cnc3c(N)ncnc32)[C@H](O)[C@@H]1OP(=O)(O)O [Propionyl-CoA, n-propionyl-CoA]
78.2

Annotate the compound CC(=O)SCCNC(=O)CCNC(=O)[C@H](O)C(C)(C)COP(=O)(O)OP(=O)(O)OC[C@H]1O[C@@H](n2cnc3c(N)ncnc32)[C@H](O)[C@@H]1OP(=O)(O)O [Acetyl-CoA] with its measured % Activity.
79.2

Supply measured % Activity of CC(C)C(=O)SCCNC(=O)CCNC(=O)[C@H](O)C(C)(C)COP(=O)(O)OP(=O)(O)OC[C@H]1O[C@@H](n2cnc3c(N)ncnc32)[C@H](O)[C@@H]1OP(=O)(O)O [Isobutyryl-CoA, isobutyryl-CoA] in your reply.
2.10

Could you please provide reported % Activity for C/C=C(\C)C(=O)SCCNC(=O)CCNC(=O)[C@H](O)C(C)(C)COP(=O)(O)OP(=O)(O)OC[C@H]1O[C@@H](n2cnc3c(N)ncnc32)[C@H](O)[C@@H]1OP(=O)(O)O [Tiglyl-CoA, tiglyl-CoA] ? Thanks!
0.00

Identify measured % Activity associated with CC(C(=O)O)C(=O)SCCNC(=O)CCNC(=O)[C@H](O)C(C)(C)COP(=O)(O)OP(=O)(O)OC[C@H]1O[C@@H](n2cnc3c(N)ncnc32)[C@H](O)[C@@H]1OP(=O)(O)O (stereo partly drawn) [Methylmalonyl-CoA, methylmalonyl CoA]
1.11

Assign % Activity to the following record: CCNC(=O)CCNC(=O)[C@H](O)C(C)(C)COP(=O)(O)OP(=O)(O)OC[C@H]1O[C@@H](n2cnc3c(N)ncnc32)[C@H](O)[C@@H]1OP(=O)(O)O [Desulfo-CoA, desulfo-CoA]
0.95
